Biological target: Ataxin-2 (Homo sapiens) (UniProt Q99700)
Sequence (Q99700 whole entry): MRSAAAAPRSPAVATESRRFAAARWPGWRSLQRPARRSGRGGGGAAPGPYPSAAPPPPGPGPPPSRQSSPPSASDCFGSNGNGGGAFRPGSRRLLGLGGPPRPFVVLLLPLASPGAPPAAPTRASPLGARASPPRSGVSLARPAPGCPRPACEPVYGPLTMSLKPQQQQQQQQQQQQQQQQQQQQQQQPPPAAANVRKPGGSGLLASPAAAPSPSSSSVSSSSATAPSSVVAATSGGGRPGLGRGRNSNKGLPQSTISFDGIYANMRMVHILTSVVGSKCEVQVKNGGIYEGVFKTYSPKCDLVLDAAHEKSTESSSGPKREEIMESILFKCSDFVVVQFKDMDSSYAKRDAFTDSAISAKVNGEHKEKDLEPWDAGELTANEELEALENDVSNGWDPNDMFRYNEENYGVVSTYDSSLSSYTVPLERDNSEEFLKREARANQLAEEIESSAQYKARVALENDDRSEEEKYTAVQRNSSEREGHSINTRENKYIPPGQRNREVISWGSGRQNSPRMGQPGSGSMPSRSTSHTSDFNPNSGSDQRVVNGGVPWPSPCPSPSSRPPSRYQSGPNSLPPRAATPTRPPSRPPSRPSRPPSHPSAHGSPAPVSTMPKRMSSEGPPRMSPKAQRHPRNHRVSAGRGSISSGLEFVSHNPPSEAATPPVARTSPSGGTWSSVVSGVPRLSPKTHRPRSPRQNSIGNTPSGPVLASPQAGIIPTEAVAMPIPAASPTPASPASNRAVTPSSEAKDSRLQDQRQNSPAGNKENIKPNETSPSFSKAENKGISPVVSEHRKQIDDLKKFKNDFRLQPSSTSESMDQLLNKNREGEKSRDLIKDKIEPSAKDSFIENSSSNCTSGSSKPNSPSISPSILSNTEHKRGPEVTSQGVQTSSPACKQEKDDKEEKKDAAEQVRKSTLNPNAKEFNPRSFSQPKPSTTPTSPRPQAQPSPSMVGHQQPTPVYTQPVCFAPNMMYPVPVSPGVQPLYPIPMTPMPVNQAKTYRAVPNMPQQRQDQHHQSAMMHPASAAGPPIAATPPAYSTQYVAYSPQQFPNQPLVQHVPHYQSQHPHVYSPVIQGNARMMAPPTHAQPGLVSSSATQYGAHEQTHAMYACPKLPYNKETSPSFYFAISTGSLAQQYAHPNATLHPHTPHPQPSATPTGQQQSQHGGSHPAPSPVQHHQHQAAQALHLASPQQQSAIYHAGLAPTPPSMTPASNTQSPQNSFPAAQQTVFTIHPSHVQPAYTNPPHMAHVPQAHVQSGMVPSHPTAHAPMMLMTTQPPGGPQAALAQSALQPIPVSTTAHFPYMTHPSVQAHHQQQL
Test: qHTS for Inhibitors of ATXN expression.
Type: functional
Among all 400,000 compounds or so, about 2,100 (0.53%) were called active. Roughly 14% stayed inconclusive and do not appear here. The sample holds actives, similar compounds and a random draw of the others, so the mix is not that of the screen.
PROPERTY MEASURED: Potency

The examples below pair each entry with its known result.
>>> result("Cc1ccc(Cn2c(=O)c3ccccc3n3nc(C)cc23)cc1")
"inactive"
>>> result("O=C1CN2CCC1C/C2=C\\c1ccnc2c(Cl)cccc12 (centres undefined)")
"inactive"
>>> result("NC(=S)c1cc2cc(Cl)ccc2oc1=O")
"inactive"
>>> result("CCOC(=O)c1cc2c(=O)n3ccccc3nc2n(CC2CCCO2)/c1=N\\C(C)=O (centres undefined)")
"inactive"
>>> result("CCOC(=O)N1CCN(C(=O)CSc2nc(O)c3cnn(-c4ccc(C)cc4)c3n2)CC1")
"inactive"

query: Item under review: `N#Cc1ccccc1NC(=O)CSc1nc(-c2ccccc2)cc(C(F)(F)F)c1C#N` . Reported Potency?
result: inactive

* * *

Target: Ataxin-2 (Homo sapiens) (UniProt Q99700)
Test: qHTS for Inhibitors of ATXN expression.
Type: functional
Among all 400,000 compounds or so, about 2,100 (0.53%) were called active. About 14% were inconclusive and are not listed. How the calls were made is not given here. Shown is part of a subset that was picked to be rich in actives.
Select the matching outcome among active, inactive

query: Outcome? COc1ccc(C2C=C(c3ccccc3)Nc3nc(NS(=O)(=O)c4ccc(C)cc4)nn32)cc1 (centres undefined)
result: inactive

query: Outcome? `O=C(COC(=O)c1c(F)cccc1F)NC(=O)NCc1ccccc1`
result: inactive

query: Outcome? `Nc1c(S(=O)(=O)c2cccs2)c2nc3ccccc3nc2n1/N=C/c1cccc(O)c1`
result: active

query: Outcome? `CCN1C=C(C(=O)OC)C(c2cccc(C)c2)C(C(=O)OC)=C1`
result: inactive

query: Outcome? `CCOC(=O)N1CCN(C(=O)c2cn(CC)c3ccc(S(=O)(=O)N4CCCCC4)cc3c2=O)CC1`
result: inactive

query: Outcome? `COC(=O)C1=C(C)N(Cc2ccccc2)C(NCC(C)C)=N[C@H]1c1cccc(F)c1`
result: active

query: Outcome? `COC(=O)C1=C(C)N(Cc2ccccc2)C(NCc2cc(OC)c(OC)c(OC)c2)=N[C@H]1c1ccc(Br)cc1`
result: active

query: Outcome? `COC(=O)C1=C(C)N(Cc2ccccc2)C(NCc2ccc(OC)cc2)=N[C@H]1c1cccc(F)c1`
result: active

query: Outcome? `COC(=O)C1=CN(Cc2ccc(OC)c(OC)c2)C=C(C(=O)OC)C1c1cccc(OC)c1OC`
result: inactive

* * *

Biological target: Ataxin-2 (Homo sapiens) (UniProt Q99700)
Assay: qHTS for Inhibitors of ATXN expression.
Format: functional
Among all 400,000 compounds or so, about 2,100 (0.53%) were called active. Inconclusive results (about 14%) are left out. How the calls were made is not given here. What follows is part of a selection rich in actives, with near analogues and random picks from the rest.
Select the matching outcome among TRUE for active, FALSE for inactive

query: Outcome? `COc1cccc(/C=C/c2nc(C#N)c(N(C)Cc3ccccc3)o2)c1`
result: FALSE

query: Outcome? `COc1cc(Cl)cc(/C=N/NC(N)=O)c1O`
result: FALSE

query: Outcome? `COc1ccccc1[C@@H]1C(c2ccc(F)cc2)=NN(c2ccccc2)[C@H]1C(=O)N1CCOC1=O`
result: FALSE

query: Outcome? `Cc1cc(Cl)ccc1OCC(=O)OCC(=O)Nc1cccnc1Cl`
result: FALSE

query: Outcome? `CN1C(=O)/C(=N\C2CCCCC2)c2c3ccccc3c(O)c3cccc1c23`
result: FALSE

query: Outcome? `COc1ccccc1Sc1ccccc1/C=N/NC(N)=O`
result: TRUE

query: Outcome? `NNc1nc(-c2ccccc2)c2ccccc2n1`
result: FALSE

query: Outcome? `O=c1c2ccccc2nc(/C=C/c2ccc(O)cc2)n1CCc1ccccc1`
result: FALSE

query: Outcome? COc1ccccc1/C=C/C1(C(=O)NC2CCCC2)CC(=O)N1c1ccc(F)cc1 (stereo unspecified)
result: TRUE

query: Outcome? `COc1cccc(/C=N/NC(=O)NC2CCCCC2)c1O`
result: FALSE

query: Outcome? `Cc1ccc(OCC(=O)Nc2ccc(Cl)cc2)c(-n2nc3ccccc3n2)c1`
result: TRUE
